System: HL-60 human leukemia cancer cell line
method_notes: MTT viability assay, HL-60
Type: cell-based
run_conditions: Homo sapiens, HL-60, 72 h, mean ± SD of three independent experiments, read-out: Antiproliferative Activities IC50, HL-60
reported_metric: IC50

[[record]]
compound = "NS(=O)(=O)c1ccc(-n2cc(-n3nnc4ccccc43)[nH]c2=S)cc1"
obs_value = "0.9 µM"

[[record]]
compound = "S=c1[nH]c(-n2nnc3ccccc32)cn1-c1cccc(Cl)c1"
obs_value = "5.12 µM"

[[record]]
compound = "S=c1[nH]c(-n2nnc3ccccc32)cn1-c1ccccc1Cl"
obs_value = "3.42 µM"

[[record]]
compound = "S=c1[nH]c(-n2nnc3ccccc32)cn1-c1ccccc1"
obs_value = "5.23 µM"

[[record]]
compound = "COc1ccc(/C=C\\c2cc(OC)c(OC)c(OC)c2)cc1O [CA-4, Combretastatin A-4, reference compound]"
obs_value = "0.77 µM"

[[record]]
compound = "Cc1ccc(-n2cc(-n3nnc4ccccc43)[nH]c2=S)cc1"
obs_value = "37.1 µM"

[[record]]
compound = "S=c1[nH]c(-n2nnc3ccccc32)cn1-c1ccc(Cl)cc1"
obs_value = "3.28 µM"

[[record]]
compound = "COc1ccc(-n2cc(-n3nnc4ccccc43)[nH]c2=S)cc1"
obs_value = "22.1 µM"

[[record]]
compound = "CCc1ccc(-n2cc(-n3nnc4ccccc43)[nH]c2=S)cc1"
obs_value = "3.91 µM"

